# procedure_text: Tmax in Sprague-Dawley rat at 10 mg/kg, po
# Assay type: ADME, organism-based
# Set-up: dose 10 mg/kg, route oral
# condition_details: in vivo
parameter_measured: Tmax (min)
Please respond with the number in min and leave the unit unwritten.

Exercise: Any idea what its Tmax is? The molecule is `C[C@H]1CNCCc2ccc(Cl)cc21`
Key: 30

* * *

Reported values of EC50 for individual entries
# target_desc: 5-hydroxytryptamine receptor 2A (Homo sapiens)
# Sequence (P28223 whole entry): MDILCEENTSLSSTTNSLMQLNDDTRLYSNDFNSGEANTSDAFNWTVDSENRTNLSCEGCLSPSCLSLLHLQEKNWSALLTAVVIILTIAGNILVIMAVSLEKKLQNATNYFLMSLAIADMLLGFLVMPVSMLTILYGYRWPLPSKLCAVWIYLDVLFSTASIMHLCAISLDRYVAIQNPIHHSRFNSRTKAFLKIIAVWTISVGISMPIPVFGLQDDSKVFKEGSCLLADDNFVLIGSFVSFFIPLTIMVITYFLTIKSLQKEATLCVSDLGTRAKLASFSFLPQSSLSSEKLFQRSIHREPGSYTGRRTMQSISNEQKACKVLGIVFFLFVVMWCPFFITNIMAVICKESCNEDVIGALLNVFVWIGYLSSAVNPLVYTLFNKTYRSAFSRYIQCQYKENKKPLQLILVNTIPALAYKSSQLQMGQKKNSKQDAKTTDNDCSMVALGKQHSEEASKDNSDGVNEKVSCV
# procedure_text: Agonist activity at human 5HT2A receptor expressed in HEK293 cells assessed as intracellular IP3 accumulation
Please respond with the number in µM and leave the unit unwritten.

Look over these answered cases.
CC1CNCCc2ccc(Br)cc21 (racemic); 0.501
CC1CNCCc2cc(F)c(Cl)cc21 (racemic); 0.0631
CC1CNCCc2ccc(Cl)c(Cl)c21 (racemic); 0.2

Exercise: Any idea what its EC50 is? The molecule is `C[C@@H]1CNCCc2ccc(Cl)c(Cl)c21`
Key: 0.126

* * *

# target_desc: 5-hydroxytryptamine receptor 2A (Homo sapiens)
# procedure_text: Agonist activity at human 5HT2A receptor expressed in HEK293 cells assessed as intracellular IP3 accumulation
Each record is given true if its reported EC50 is strictly below 300 nM. Records at or above 300 nM are given false.

The following compounds have reported results that may help.
c1ccc2c(c1)CCNCC2; false
C[C@H]1CNCCc2ccc(C(F)(F)F)cc21; true

Exercise: Quick check: does `CC1(C)CNCCc2ccc(Cl)cc21` have EC50 under 300 nM?
Key: false

Exercise: Quick check: does COc1cc2c(cc1Cl)C(C)CNCC2 (single isomer, unassigned; form 2) have EC50 under 300 nM?
Key: true

Exercise: Quick check: does `CC[C@H]1CNCCc2ccc(Cl)cc21` have EC50 under 300 nM?
Key: true

* * *

# procedure_text: AUC (0-infinity) in Sprague-Dawley rat at 10 mg/kg, po
# Type: ADME, organism-based
# Set-up: time infinity, dose 10 mg/kg, route oral
# condition_details: plasma
parameter_measured: AUC(0-inf) (ng·h/mL)
Please respond with the number in ng·h/mL and leave the unit unwritten.

Exercise: Any idea what its AUC(0-inf) is? The molecule is `C[C@H]1CNCCc2ccc(Cl)cc21`
Key: 1400

* * *

# System: Rattus norvegicus
# procedure_text: Reduction of food intake in Sprague-Dawley rat at 100 umol/kg, po after 2 hrs relative to control
# Type: functional
parameter_measured: inhibition in vivo at 100 µmol/kg (%)
Please respond with the number in % and leave the unit unwritten.

C[C@@H]1CNCCc2ccc(Cl)cc21; 73

Exercise: Any idea what its inhibition in vivo at 100 µmol/kg is? The molecule is COc1cc2c(cc1Cl)C(C)CNCC2 (single isomer, unassigned; form 1)
Key: 43

Exercise: Any idea what its inhibition in vivo at 100 µmol/kg is? The molecule is COc1cc2c(cc1Cl)C(C)CNCC2 (single isomer, unassigned; form 2)
Key: 77

Exercise: Any idea what its inhibition in vivo at 100 µmol/kg is? The molecule is COc1cc2c(cc1Cl)C(C)CNCC2 (racemic)
Key: 71

Exercise: Any idea what its inhibition in vivo at 100 µmol/kg is? The molecule is CC1CNCCc2ccc(Cl)cc21 (racemic)
Key: 81

Exercise: Any idea what its inhibition in vivo at 100 µmol/kg is? The molecule is CC1CNCCc2cc(Cl)c(Cl)cc21 (racemic)
Key: 60

Exercise: Any idea what its inhibition in vivo at 100 µmol/kg is? The molecule is `Clc1ccc2c(c1)CCNCC2`
Key: 85

* * *

# procedure_text: Half life in Sprague-Dawley rat at 10 mg/kg, po
# Assay type: ADME, organism-based
# Parameters: dose 10 mg/kg, route oral
# condition_details: in vivo
parameter_measured: half-life (min)
Please respond with the number in min and leave the unit unwritten.

Exercise: Any idea what its half-life is? The molecule is `C[C@H]1CNCCc2ccc(Cl)cc21`
Key: 222

* * *

# Tested on: Rattus norvegicus
# procedure_text: Reduction of food intake in Sprague-Dawley rat at 50 umol/kg, po after 2 hrs relative to control
# Assay type: functional
parameter_measured: inhibition in vivo at 50 µmol/kg (%)
Please respond with the number in % and leave the unit unwritten.

Look over these answered cases.
C[C@@H]1CNCCc2cc(Cl)c(Cl)cc21; 58
CC1CNCCc2cc(Cl)c(Cl)cc21 (racemic); 44
CC1CNCCc2cc(F)c(Cl)cc21 (racemic); 41
C[C@H]1CNCCc2ccc(Cl)cc21; 77
COc1cc2c(cc1Cl)C(C)CNCC2 (racemic); 52

Let us examine a further case.
Exercise: Any idea what its inhibition in vivo at 50 µmol/kg is? The compound is `C[C@H]1CNCCc2cc(Cl)c(Cl)cc21`
Key: 40

* * *

# procedure_text: Oral bioavailability in Sprague-Dawley rat at 10 mg/kg
# Type: ADME, organism-based
# condition_details: in vivo
parameter_measured: bioavailability

Exercise: Any idea what its bioavailability is? The compound is `C[C@H]1CNCCc2ccc(Cl)cc21`
Key: 86%

* * *

# target_desc: 5-hydroxytryptamine receptor 2A (Homo sapiens)
# procedure_text: Agonist activity at human 5HT2A receptor expressed in HEK293 cells assessed as intracellular IP3 accumulation
parameter_measured: pEC50
API: returns pEC50 as number; meaning -log10 of concentration in mol/L.

COc1cc2c(cc1Cl)CCNCC2C (racemic); 7.00
COc1cc2c(cc1Cl)C(C)CNCC2 (racemic); 7.20
CC1CNCCc2cc(Cl)c(Cl)cc21 (racemic); 7.70

Exercise: Any idea what its pEC50 is? The compound is `C[C@H](N)Cn1ccc2cc(F)c(Cl)cc21`
Key: 7.30

Exercise: Any idea what its pEC50 is? The compound is COc1cc2c(cc1Cl)C(C)CNCC2 (single isomer, unassigned; form 1)
Key: 6.70

Exercise: Any idea what its pEC50 is? The compound is `Clc1ccc2c(c1)CCNCC2`
Key: 7.00

* * *

# procedure_text: AUC (0-infinity) in Sprague-Dawley rat at 5 mg/kg, iv
# Format: ADME, organism-based
# Design: time infinity, dose 5 mg/kg, route intravenous
# condition_details: plasma
parameter_measured: AUC(0-inf) (ng·h/mL)
Please respond with the number in ng·h/mL and leave the unit unwritten.

Exercise: Any idea what its AUC(0-inf) is? The molecule is C[C@H]1CNCCc2ccc(Cl)cc21 [LORCASERIN]
Key: 800

* * *

# target_desc: 5-hydroxytryptamine receptor 2B (Homo sapiens)
# Sequence (P41595 whole entry): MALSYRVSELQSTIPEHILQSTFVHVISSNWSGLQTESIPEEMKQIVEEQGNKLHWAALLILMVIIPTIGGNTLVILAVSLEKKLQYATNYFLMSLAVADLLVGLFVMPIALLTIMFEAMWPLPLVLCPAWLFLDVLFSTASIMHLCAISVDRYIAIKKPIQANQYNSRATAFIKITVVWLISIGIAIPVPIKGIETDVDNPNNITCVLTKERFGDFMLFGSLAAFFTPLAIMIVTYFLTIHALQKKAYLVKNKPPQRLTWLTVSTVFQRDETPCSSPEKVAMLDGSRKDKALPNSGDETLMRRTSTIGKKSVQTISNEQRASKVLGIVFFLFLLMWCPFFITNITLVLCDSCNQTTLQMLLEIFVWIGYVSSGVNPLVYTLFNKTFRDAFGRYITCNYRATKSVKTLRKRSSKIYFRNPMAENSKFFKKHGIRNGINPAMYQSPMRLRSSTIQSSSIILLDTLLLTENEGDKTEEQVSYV
# procedure_text: Agonist activity at human 5HT2B receptor expressed in HEK293 cells assessed as intracellular IP3 accumulation
parameter_measured: EC50

Exercise: Any idea what its EC50 is? The compound is CC1CNCCc2c(Cl)cccc21 (racemic)
Key: > 10 µM

Exercise: Any idea what its EC50 is? The compound is COc1ccc2c(c1)CCNCC2C (racemic)
Key: > 10 µM

Exercise: Any idea what its EC50 is? The compound is CC1CNCCc2cccc(Cl)c21 (racemic)
Key: > 10 µM

Exercise: Any idea what its EC50 is? The compound is `C[C@H]1CNCCc2ccc(Cl)c(Cl)c21`
Key: > 10 µM

Exercise: Any idea what its EC50 is? The compound is `C[C@@H]1CNCCc2ccc(Cl)c(F)c21`
Key: > 10 µM

* * *

Reported values of EC50 for individual entries
# target_desc: 5-hydroxytryptamine receptor 2C (Homo sapiens)
# Sequence (P28335 whole entry): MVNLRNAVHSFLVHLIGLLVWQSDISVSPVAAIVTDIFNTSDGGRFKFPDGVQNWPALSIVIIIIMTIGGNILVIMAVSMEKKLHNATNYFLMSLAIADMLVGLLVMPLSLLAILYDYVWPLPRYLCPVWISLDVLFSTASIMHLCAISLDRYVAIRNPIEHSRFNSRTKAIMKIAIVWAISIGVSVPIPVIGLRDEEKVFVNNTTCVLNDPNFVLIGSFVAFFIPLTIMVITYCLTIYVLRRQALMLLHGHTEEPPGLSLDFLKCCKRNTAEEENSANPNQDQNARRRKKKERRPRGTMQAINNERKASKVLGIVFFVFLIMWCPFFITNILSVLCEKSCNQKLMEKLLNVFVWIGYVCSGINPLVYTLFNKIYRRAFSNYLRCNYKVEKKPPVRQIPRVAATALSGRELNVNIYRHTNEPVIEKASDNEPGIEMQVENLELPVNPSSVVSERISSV
# procedure_text: Agonist activity at human 5HT2C receptor expressed in HEK293 cells assessed as intracellular IP3 accumulation
Please respond with the number in nM and leave the unit unwritten.

CC1CNCCc2cc(F)c(Cl)cc21 (racemic); 6.31
CC[C@H]1CNCCc2ccc(Cl)cc21; 39.8
C[C@@H]1CNCCc2cc(Cl)c(Cl)cc21; 7.94

Exercise: Any idea what its EC50 is? The molecule is COc1cc2c(cc1Cl)CCNCC2C (racemic)
Key: 50.1

Exercise: Any idea what its EC50 is? The molecule is COc1ccc2c(c1)C(C)CNCC2 (racemic)
Key: 200

Exercise: Any idea what its EC50 is? The molecule is COc1ccc2c(c1)CCNCC2C (racemic)
Key: 1260

Exercise: Any idea what its EC50 is? The molecule is CC1CNCCc2ccc(C(F)(F)F)cc21 (racemic)
Key: 6.31

Exercise: Any idea what its EC50 is? The molecule is CC1CNCCc2ccc(Cl)c(F)c21 (racemic)
Key: 20

Exercise: Any idea what its EC50 is? The molecule is C[C@H](N)Cc1cccc(C(F)(F)F)c1 [NORDEXFENFLURAMINE]
Key: 25.1

Exercise: Any idea what its EC50 is? The molecule is `C[C@@H]1CNCCc2ccc(Cl)c(F)c21`
Key: 3.98
